# ASSAY SYSTEM: H2 nucleobase transporter
# ASSAY SUMMARY: inhibition of […] [3H]-hypoxanthine uptake in bloodstream-form trypanosomes
# Assay type: cell-based, Trypanosoma brucei brucei
READOUT: pKi
Numbers only, as −log10 of the molar value.

Field pKi (entry Nc1ncnc2n[nH]cc12 ) reads 3.64
